- System: UACC-62
- PROTOCOL TEXT: NCI tumour cell line growth inhibition, 48 h
The source made the active and inactive calls. No stated cut-off is given here; in the data, active = GI50 up to about 1.1 µM and inactive = higher.
OBSERVATION TYPE: GI50

Recorded results for 5 compounds are shown here.
CCOP(=O)(CC(=O)C1CC1)OCC: > 100 µM (inactive)
CCCCCC[C@H]1CC(=O)C2CCCC[C@@]23CC[C@H](CCl)N13.CCCCCC[C@H]1CC(=O)C2CCCC[C@@]23C[C@H](Cl)CN13 (stereo not given in full): 48.1 µM (inactive)
c1ccc(-c2nc3sccn3n2)cc1: > 100 µM (inactive)
C#CC(O)/C=C/C(O)CCCC(O)CC#CC(O)C#CCCCCC(O)/C=C/CCCCCC(=O)CCCCCCCCCCCCCC(O)C(O)C#CC(=O)O (stereo not given): > 25 µM (inactive)
COc1ccc(-n2sc3ncc([N+](=O)[O-])cc3c2=O)cc1: > 100 µM (inactive)

Short answer please: GI50, UACC-62, entry Cc1ccc2c(c1)C(=O)C1(C2)Cc2c(C)cccc2C1=O (stereo not given)
> 100 µM (inactive)

Short answer please: GI50, UACC-62, entry C=C(C)C(=O)O[C@@H]1C[C@@]2(C)O[C@@H]2C[C@H](O)/C(C)=C/[C@H]2OC(=O)C(=C)[C@@H]21
74.5 µM (inactive)

Short answer please: GI50, UACC-62, entry C[C@@H](NC(=O)Cn1c(Cl)nc2ccccc21)c1ccccc1
> 100 µM (inactive)

Short answer please: GI50, UACC-62, entry CC(C)COC1Sc2ccccc2S1
4.91 µM (inactive)

Short answer please: GI50, UACC-62, entry COc1cc(-c2nccc3cc(OC)c(OC)cc23)ccc1O
30 µM (inactive)
